Could you please report measured composite z-score for the items listed next?
# Assay Procedure: small-molecule binders of probe aNOTCH3, primary screen, biochemical, small-molecule microarray, 635/667 nm fluorescence (AID 1120);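 further: probe is a biotin-tagged antibody raised against NOTCH3 rather than NOTCH3 protein; score merges spot fluorescence near 667 nm with spot signal to noise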
# Recorded Conditions: higher = more signal
Please respond with just the number, no unit label.

Any idea what its composite z-score is? The molecule is CC(=O)n1cc(C(O)C2C=CC3C(=O)N(c4ccccc4)C(=O)C3N2Nc2ccc(C(C)C)cc2)c2ccccc21 (configuration not stated)
0.328

Record: COc1ccc([Si](C)(C)[C@H]2[C@H](CC(=O)N3CCC[C@H]3CO)O[C@@]3(C(=O)N(Cc4ccc(N5CCC5=O)cc4)c4ccccc43)[C@@H]2C)cc1
-0.0182

Input C=C(COC)C(=O)CC[C@@H](OC(=O)c1cccnc1)c1ccccc1OCCO
0.0237

// next record C=CCN1C(=O)[C@]2(O[C@H](CCO)[C@@H]([Si](C)(C)c3ccc(OC)cc3)[C@@H]2C)c2cc(NC(=O)c3ccc(OC)cc3)ccc21
-0.0017

Follow-up entry: C=CCNC(=O)[C@H]1[C@@H]2C(=O)O[C@@H](c3ccccc3)[C@@H](c3ccccc3)N2[C@@H](c2ccc(OCCO)cc2)[C@]12C(=O)Nc1ccc(C#CCNC(N)=O)cc12
0.103

Also, Cc1nc2cc(Br)ccc2c(=O)n1Cc1cccc(O)c1 please.
-0.119

Likewise for CC1CC/C=C\[C@H]2OC34C=CCN(CCN5CCOCC5)C(=O)[C@H]3N(C(C)CO)C(=O)[C@@H]4C2C(=O)O1 (some centres not stated) ?
-0.129

----------
# Test system: Noggin (protein binding on small-molecule microarray)
# Assay Procedure: Noggin binders on small-molecule microarray, primary screen, biochemical, 635/667 nm fluorescence (AID 1095);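 further: score merges 667 nm feature fluorescence with signal to noise over triplicate slides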
# Recorded Conditions: 635 nm fluorescence, higher = more signal
Metric Name: composite z-score

Field request: composite z-score | item: COC(=O)[C@@]1(Cc2ccc(F)cc2)[C@H]2c3cc(C(=O)N4CCCC4)n(CC4CC4)c3C[C@H]2CN1C(=O)c1ccccc1
0.577

Let us now turn to CC(C)[C@H]1NC(=O)[C@@]23C(=O)N[C@@H](Cc4ccccc4)C2[C@H](C)[C@@]2(C)O[C@H]2C3/C=C/C/C=C\CNC(=O)[C@H](Cc2ccccc2)NC1=O (some centres undefined)
0.877

Please answer likewise for COCCOC(=O)N1C(=O)[C@@]2(c3cc(C#CCCO)ccc31)[C@H](C(N)=O)[C@H]1C(=O)O[C@H](c3ccccc3)[C@H](c3ccccc3)N1[C@@H]2c1ccc(OCCO)cc1
0.632

[N-]=[N+]=Nc1ccccc1C[C@]1(C(=O)O)N=C(c2ccc(OCCCO)cc2)O[C@H]1c1ccccc1 ?
-0.0597

# repeat for CN(C)C(=O)[C@@]1(Cc2ccccc2)COC(c2ccc(OCCCO)cc2)=N1
-0.955

Next: CCOC(=O)C1=CC[C@@H](c2ccccc2)N(S(=O)(=O)c2ccc(C)cc2)[C@H]1c1cccc(OC)c1
-0.266

What about this molecule? COc1ccc(C#Cc2ccc3c(c2)[C@]2(C(=O)N3)[C@H](C(=O)Nc3nc4ccccc4s3)[C@H]3C(=O)O[C@H](c4ccccc4)[C@H](c4ccccc4)N3[C@@H]2c2ccccc2OCCO)cc1
0.486

Thanks! And CN1C(=O)[C@@]2(Cc3ccccc3)N=C(c3ccc(OCCCO)cc3)O[C@H]2c2ccccc21 ?
0.955

// query: CC(C)(C)OC(=O)CC[C@]1(C(=O)N2CCCCC2)COC(c2ccc(OCCCO)cc2)=N1
0.318

Record: COc1ccc(C(O)C2C=CC3C(=O)N(c4ccccc4)C(=O)C3N2Nc2ccccc2F)cc1 (centres undefined)
0.164

Follow-up item: CCN(CC)c1ccc(N2CC=CC34O[C@@H]5C=CCCOC(=O)C5[C@H]3C(=O)N(CCO)[C@@H]4C2=O)cc1 (some centres undefined)
-1.42

Moving on to CN1C(=O)C2C(C1=O)C1C=C(CCCO)C2C(C2CC2)N1Cc1cc2c(cc1Br)OCO2 (centres undefined)
0.304

And the next one, C=CCC(OC(C)=O)[C@@H]1[C@@H](N(Cc2cccc3ccccc23)C(=O)Cc2ccc(F)cc2)c2cc(OCCCO)ccc2N1C(=O)c1ccc(-c2ccccc2)cc1 (some centres undefined) ?
-0.556

Also COc1cc2c(cc1OC)CN(C(=O)[C@@H]1[C@H]3C(=O)O[C@H](c4ccccc4)[C@H](c4ccccc4)N3[C@H](c3ccc(O)cc3)[C@@]13C(=O)Nc1ccc(C#CCCO)cc13)CC2 ?
0.32

----------
# Assay System: Calmodulin-1 (Homo sapiens) (UniProt P0DP23)
# Assay Procedure: CALM1 binders on microarrays, EGTA buffer, profiling panel, biochemical, small-molecule microarray, Cy5-labelled CALM1 (AID 1111);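 further: labelled calmodulin applied in Tris saline Tween buffer holding calcium plus EGTA and DTT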
# Recorded Conditions: Cy5-CALM1 binding fluorescence, higher = more signal
Please enter True where composite z-score is greater than or equal to -0.4, and False where it is lower.

Entry CCOC(=O)C[C@H]1[C@H](OC(=O)c2ccccc2-c2ccccc2)[C@@H](NC(=O)c2ccc3ccccc3n2)c2cc(OCCCO)ccc2N1C(=O)c1ccccc1 : is its composite z-score no less than -0.4?
True

Same again, this time with CC(C)C(CO)N1C(=O)[C@@H]2[C@H]3C(=O)OCC=C[C@H]3OC23C=CCN(C(C)(C)C)C(=O)[C@@H]13 (stereo partly specified)
False

// next record C=C[C@@H](OC)[C@H](OC(=O)Nc1ccc(OC)cc1)c1ccc(OC)c(O)c1
False

Try C=CCNC(=O)[C@H]1[C@@H]2C(=O)O[C@@H](c3ccccc3)[C@@H](c3ccccc3)N2[C@@H](c2ccc(OCCO)cc2)[C@]12C(=O)N(C(=O)OCCOC)c1ccc(C#Cc3ccc(OC)cc3)cc12 next.
True

Same question for Cc1ccc(S[C@]2(C(=O)NCc3ccccc3)CC(=O)N(Cc3cc(C(F)(F)F)cc(C(F)(F)F)c3)[C@@H]2c2ccc(CO)cc2I)cc1 please.
True

----------
# Assay Procedure: small-molecule microarray binders of probe aCHRDL2, primary screen, biochemical, biotinylated probe, 635/667 nm fluorescence (AID 1100)
# Recorded Conditions: higher = more signal
Metric Name: composite z-score
Enter the number alone.

What value of measured composite z-score is listed for Cc1ccc([C@H]2C(C(=O)O)=C[C@@H](C(C)(C)C)N2S(=O)(=O)c2ccc(C)cc2)cc1 ?
1.06

Quick one: CCC(CC)C(O)C1C=CC2C(=O)N(c3ccccc3)C(=O)C2N1Nc1ccc([N+](=O)[O-])cc1 (configuration not stated)
0.638

How about this compound: CCOC(=O)C1=CCN(S(=O)(=O)c2ccc(C)cc2)C1c1ccccc1 (configuration not stated)
0.221

What about this compound? CCCCCN1CC=CC23O[C@@H]4/C=C\CCC(C)OC(=O)C4[C@H]2C(=O)N(CCCCCCO)[C@@H]3C1=O (some centres not stated)
0.248

Queued: COCCOC(=O)N1C(=O)[C@@]2(c3cc(C#CCC(C(=O)OC)C(=O)OC)ccc31)[C@H](c1ccc(O)cc1)N1[C@H](c3ccccc3)[C@H](c3ccccc3)OC(=O)[C@H]1[C@@H]2C(=O)NC[C@H](O)c1ccccc1
0.181

Please answer likewise for [N-]=[N+]=NCc1ccccc1[C@H]1OC(c2ccc(OCCCO)cc2)=N[C@@]1(Cc1ccccc1)C(=O)NCCN1CCOCC1
0.75

Same lookup for C=CCC(OC(C)=O)[C@@H]1[C@@H](N(Cc2cccc3ccccc23)C(=O)c2ccc(-c3ccccc3)cc2)c2cc(OCCCO)ccc2N1C(=O)c1ccc(-c2ccccc2)cc1 (some centres not stated) , please.
0.75

----------
# Assay System: Streptavidin (Streptomyces avidinii) (UniProt P22629)
# Sequence (P22629 whole entry, looked up): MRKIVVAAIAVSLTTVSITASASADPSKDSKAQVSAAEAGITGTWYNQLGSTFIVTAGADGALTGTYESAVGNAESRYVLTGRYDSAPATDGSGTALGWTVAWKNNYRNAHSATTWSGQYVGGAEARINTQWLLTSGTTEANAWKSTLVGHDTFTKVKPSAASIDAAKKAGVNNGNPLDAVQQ
# Assay Procedure: streptavidin binders on small-molecule microarray, primary screen, artefact control for SMM compound annotation, biophysical, 635/667 nm fluorescence (AID 1147);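 further: signal reflects streptavidin binding to arrayed compounds as a control protein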
# Recorded Conditions: streptavidin binding, higher = more signal
Label satisfied when composite z-score is at or above 0.5; otherwise label not satisfied.

Confirm if composite z-score reported for the compound COCCCNC(=O)[C@@]1(c2ccc([N+](=O)[O-])cc2)CC(=O)N(C(C)C)[C@@H]1c1ccc(CO)cc1 is 0.5 or above.
not satisfied

What do you get for C=CC[C@H](OC(=O)Nc1ccc(SC)cc1)c1ccc(OCCO)cc1 ?
not satisfied

Request: COC(=O)[C@@]1(Cc2ccc(F)cc2)[C@H]2c3cc(C(=O)N4CCCC4)n(C)c3C[C@H]2CN1C(=O)c1ccccc1
satisfied

Same lookup for CC(C)N1CC=CC23O[C@@H]4/C=C\CCCOC(=O)C4[C@H]2C(=O)N(CCCCCCO)[C@@H]3C1=O (some centres not stated) , please.
not satisfied

Try this compound next: COc1ccc(C(=O)Nc2cccc(CN3C(=O)[C@]4(O[C@H](CCn5cc([C@H](O)c6ccccc6)nn5)[C@@H]([Si](C)(C)c5ccc(OC)cc5)[C@@H]4C)c4ccccc43)c2)cc1
not satisfied

And then CN(C)C(=O)[C@@]1(CCC(=O)OC(C)(C)C)N=C(c2ccc(OCCCO)cc2)O[C@H]1c1ccccc1CN=[N+]=[N-] , what is it?
not satisfied

Try this compound too: COC(=O)C(CC#Cc1ccc2c(c1)[C@]1(C(=O)N2)[C@H](c2ccc(OCCO)cc2)N2[C@H](c3ccccc3)[C@H](c3ccccc3)OC(=O)[C@H]2[C@@H]1C(=O)N1CCN(c2ncccn2)CC1)C(=O)OC
satisfied
